experiment: NCI Yeast Anticancer Drug Screen. Data for the rad50 strain (AID 155);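 note: 0% = growth of vehicle-only cultures of the same strain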; conditions: S. cerevisiae rad50 strain growth inhibition; at 50.0 µM
This is part of a sample that, as a whole, favours compounds with a hit. Of some 79,000 tested, about 15% had one in any assay. The source made the active and inactive calls. Cut-off read from the data, not from the text of the source: active = growth inhibition above about 70%; inactive = the rest.
Possible outcomes: class 1 = active, class 0 = inactive

| COMPOUND | CLASS |
| --- | --- |
| C(CCSC1=NCCN1)CSC1=NCCN1 (tested in a mixture with another compound) | class 1 |
| CC(C)C1=CC2=C[C@H](O)[C@H]3C(C)(C)CCC[C@]3(C)C2=C(O)C1=O | class 1 |
| O=CC=C(c1ccccc1)c1ccccc1 | class 0 |
| CC1CCN(CCC(=O)c2ccc(Cl)cc2)CC1 | class 1 |
| CC(=O)Cc1ccc[cH-]1.[Fe+2].c1cc[cH-]c1 | class 1 |
| CC(=O)OC1CCC2(C)C(=CCC3C4CCC5(OC6CC(C)CN(C(C)=O)C6C5C)C(C)=C4C(=O)C32)C1 (configuration not stated) | class 1 |
| COc1ccc(C2c3cc4c(cc3OC(C)(O)C2C)OCO4)c(OC)c1 (configuration not stated) | class 1 |

====

test: NCI Yeast Anticancer Drug Screen. Data for the sgs1 mgt1 strain (AID 161);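 note: 0% = growth of cultures given vehicle only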; settings: S. cerevisiae sgs1 mgt1 strain, at 5.0 µM (retest, dose inferred, filed as 0.5)
The panel holds about 79,000 compounds, 15% with a hit somewhere; the sample as a whole holds those more often. Activity calls are given as the source filed them. No stated cut-off is given here; in the data, active means growth inhibition above about 70%; inactive means the rest.
Possible outcomes: active, inactive

| MOLECULE | CLASS |
| --- | --- |
| CC/C(=C(\c1ccccc1)c1ccc(OCCN(C)C)cc1)c1ccccc1 | inactive |
| CO[C@H]1C[C@](C)(O)Cc2cc3c(c(O)c21)C(=O)c1c(O)cc2c(c1C3=O)O[C@@H]1O[C@@]2(C)[C@H](O)[C@@H](N(C)C)[C@@H]1O | inactive |
| C(CCSC1=NCCN1)CSC1=NCCN1 (tested in a mixture with another compound) | active |
| O=C1c2ccccc2C(=O)c2cc(CBr)ccc21 | inactive |
| CN1Cc2ccccc2/C=C\c2ccccc21 | inactive |
| CCOC(=O)[C@H]1Nc2ccccc2C2c3ccccc3CC21 (some centres undefined) | inactive |
| CC(=O)OCCOCNC(=S)N/N=C(\C)c1cnccn1 | inactive |
| Cc1c(C(Cc2ccccc2N(C)C(=O)/C=C\C(=O)O)c2c[nH]c3ccccc23)c2ccccc2n1C (centres undefined) | inactive |
| CCC(=O)Oc1c(Cl)cc(Cl)c2ccccc12 | inactive |
| CCOP(=O)(OCC)C(Cc1ccccc1)N=C(c1ccccc1)c1ccccc1 (centres undefined) | inactive |
| O=C(CC(=O)n1nc(-c2ccccc2)c(N=Nc2ccccc2C(=O)O)c1-c1ccccc1)Nc1ccc(Cl)cc1 | inactive |
| CCN(CC)C(C)(C)C(=O)/C=C/c1ccccc1 | inactive |
| CCOC(=O)c1cc(-c2ccc(Cl)cc2)c([N+](=O)[O-])n1C | inactive |
| CCCCCCCCCCCCCCC(C(=O)[O-])[n+]1ccccc1 (centres undefined) | inactive |

====

assay: NCI Yeast Anticancer Drug Screen. Data for the rad52 strain (AID 147);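 note: 0% = growth of vehicle-treated control cultures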; conditions: S. cerevisiae rad52 mutant growth inhibition; at 11.0 µM; hits give high values
About 79,000 compounds went through this panel and 15% of them were active in at least one assay; those are over-represented in the sample as a whole.
Label NO if growth inhibition falls below 40%; label YES in every other case.

| COMPOUND | CLASS |
| --- | --- |
| Cc1ccc(Nc2nc3c(=O)n(C)c(=O)n(C)c3nc2Nc2ccc(C)cc2)cc1 | NO |
| O=C1C2CC[C@@H]3C(=O)C(Cl)(Cl)[C@@H]3CCC2C1(Cl)Cl (stereo not given in full) | YES |
| Cc1c(C(=O)C(=O)c2ccccc2)c(C)c(C(=O)C(=O)c2ccccc2)c(C)c1C(=O)C(=O)c1ccccc1 | NO |
| BrCC[P+](c1ccccc1)(c1ccccc1)c1ccccc1 | YES |
| CO[C@H]1C[C@](C)(O)Cc2cc3c(c(O)c21)C(=O)c1c(O)cc2c(c1C3=O)O[C@@H]1O[C@@]2(C)[C@H](O)[C@@H](N(C)C)[C@@H]1O | NO |
| CC(=O)Cc1ccc[cH-]1.[Fe+2].c1cc[cH-]c1 | NO |
| CCCCCCCCCCCCCCCCCCOCC(O)COP(=O)(O)OCC1OC(n2cc(F)c(=O)[nH]c2=O)CC1O (stereo not given) | YES |
| NC1=NS(=O)(=O)N=C(N)C1=Cc1ccc([N+](=O)[O-])o1 | NO |
| Brc1ccc(-c2cc3c(cc2C2SCCS2)OCO3)cc1 | NO |
| N#CN1C2CCC1CC(=O)C2 | NO |
| O=[N+]([O-])c1cccc([N+](=O)[O-])c1S(=O)(=O)c1ccccc1 | YES |
| COc1ccc2sc3cccc(NCCN(C)C)c3c(=O)c2c1 | NO |
| CCN(CC)CCNc1ccc([N+](=O)[O-])c2nc3ccc(OC)cc3c(N)c12 | NO |
| CC(C)/C(Cl)=N\OC(=O)Nc1cccc(Cl)c1 | NO |
| CCC/C(Cl)=N\OC(=O)Nc1ccc(Br)cc1 | YES |
| CCCN(CCC)CC(O)c1cc(-c2ccc(Cl)cc2)nc2c(C)c(Cl)ccc12 (stereo not given) | YES |
| O=C1C=CC(=O)N1c1ccc2c(c1)Cc1cc(NC(=O)C(F)(F)F)ccc1-2 | YES |
| Cc1ccc(CCC2=CCCc3c2ccc2ccccc32)cc1 | NO |
| CC(C(=O)N1C(=O)N(C(=O)[C@H](C)C(O)c2ccccc2)[C@H](c2ccccc2)[C@H]1c1ccccc1)[C@@H](O)c1ccccc1 (stereo not given in full) | NO |
| O=[N+]([O-])C(=C(Sc1ccccc1)Sc1ccccc1)C(Cl)=C(Cl)Cl | YES |
| CC(C)NC(=O)OCc1c(COC(=O)NC(C)C)c(-c2ccc(Cl)c(Cl)c2)n2c1CCC2 | NO |
| CCOC(=O)c1cnc2c(C(F)(F)F)cccc2c1N=[N+]=[N-] | NO |
| CCc1ncnc2cc(OCC3CO3)c(OC)cc12 (stereo not given) | YES |
| COc1cc(C2c3cc4c(cc3OC(NNc3ccccc3)C2C)OCO4)cc(OC)c1OC (stereo not given) | YES |
| CCCCCCCCCCCCCCC(C(=O)[O-])[n+]1ccccc1 (stereo not given) | NO |
| CCc1ccc(NS(=O)(=O)c2ccccc2)c([N+](=O)[O-])c1 | NO |
| CC(=O)[O][Bi]([c]1ccccc1)[c]1ccccc1 | YES |
| CC1(C)[C@@H]2CC[C@]1(C)[C@H](OC(=O)CSC#N)C2 | NO |
| NC(=O)NN=C(CS)CS | NO |
| COc1ccccc1C(=O)OCC1CCCN2CCCCC12 (stereo not given) | YES |
| O=C1C(Nc2ccccc2)=C(Oc2ccccc2)C(=O)c2ccccc21 | NO |
| O=C1C2C=CC1C1C(=O)OC(=O)C21 (stereo not given) | NO |
| CC/C(=C(\c1ccccc1)c1ccc(OCCN(C)C)cc1)c1ccccc1 | NO |
| COc1ccc2ccc3ccccc3c2c1C=O | NO |
| O=[N+]([O-])c1ccc2c(c1)C(N1CCN(CCO)CC1)Cc1ccc(F)cc1S2 (stereo not given) | NO |
| O=C1c2cc([N+](=O)[O-])ccc2-c2cccc(F)c21 | YES |
| CC(C)/C(Cl)=N\OC(=O)Nc1ccccc1F | NO |
| Oc1ccc2ccccc2c1C(c1ccc(Cl)cc1)c1c(O)ccc2ccccc12 | NO |
| CC(=O)N/N=C/C(C)(C)C(C)(C)/C=N/NC(C)=O | NO |
| CN1c2ccc(Cl)cc2C(=O)NC1c1ccc([N+](=O)[O-])s1 (stereo not given) | YES |

====

test: NCI Yeast Anticancer Drug Screen. Data for the rad52 strain (AID 147);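 note: 0% = growth of vehicle-treated control cultures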; settings: S. cerevisiae rad52 mutant growth inhibition; at 3.7 µM
Compounds without any hit were thinned out: in the full panel of roughly 79,000, 15% have a hit. Calls of active or inactive are those of the source. No stated cut-off is given here; in the data, active means growth inhibition above about 70%; inactive means the rest.
Possible outcomes: active, inactive

| MOLECULE | CLASS |
| --- | --- |
| Cc1cc(O)cc(O)c1N=Nc1ccc([N+](=O)[O-])cc1 | inactive |
| COc1cc(C2C3=C(COC3=O)Oc3cc4c(cc32)OCO4)ccc1O (configuration not stated) | inactive |
| Cc1cccc2c(C(O)CBr)cc(-c3ccc(Cl)cc3)nc12 (configuration not stated) | inactive |
| N#C/C(=C\c1cccc(OCc2ccccc2)c1)c1ccc([N+](=O)[O-])cc1 | inactive |
| O=C1C(Nc2ccccc2)=C(Oc2ccccc2)C(=O)c2ccccc21 | inactive |
| COc1cc(C(=O)/C=C/c2ccccc2O)ccc1O | inactive |
| c1ccc2c(c1)-c1nc3ccccc3cc1C2N1CCOCC1 (configuration not stated) | inactive |
| CCOC(=O)c1cnc2c(C(F)(F)F)cccc2c1N=[N+]=[N-] | inactive |
| CC(C)[N+]([O-])(CCCNc1c2ccccc2nc2cccc([N+](=O)[O-])c12)C(C)C | active |
| Cc1[nH]c2ccccc2c1C(c1ccc(N)cc1)c1c(C)[nH]c2ccccc12 | inactive |
| CC1(Cl)CC(O)C2(CC1Br)C1(C)OC1C1OC1(Br)C2(C)C (configuration not stated) | inactive |
| O=C(NNc1ccnc2cc(Cl)ccc12)/C(=C\c1ccccc1Cl)NC(=O)c1ccccc1 | inactive |
| O=[N+]([O-])c1ccc2c(c1)C(N1CCN(CCO)CC1)Cc1ccc(F)cc1S2 (configuration not stated) | inactive |
| Cc1cc(N=Nc2ccc(S(=O)(=O)[O-])cc2)cc(C(=O)[O-])c1[O-].NC1CCCCC1N.[Na+].[Pt+4] | inactive |
| Cc1ccc(-c2ccc(Nc3c4ccccc4nc4ccccc34)cc2)cn1 | inactive |
| O=[N+]([O-])/C=C/c1ccc2ccccc2c1 | active |
| CCOC(=O)c1cnc2cc(C(F)(F)F)ccc2c1N=[N+]=[N-] | inactive |
| Nc1nc(Cl)c(Cl)c(Cl)n1 | inactive |
| c1ccc2c(c1)sc1nc3ccncc3nc12 | inactive |
| N#CSc1ccc(S(N)(=O)=O)cc1 | inactive |
| CCC/C(Cl)=N\OC(=O)Nc1ccc(Br)cc1 | inactive |
| O=[N+]([O-])c1ccc2nc3ccccc3cc2c1 | inactive |
| O=C1c2ccccc2-c2nc3ccccc3nc21 | inactive |
| CC(=O)OCC(=O)C1(O)CCC2C3CCC4CCCCC4(C)C3CCC21C (configuration not stated) | inactive |
| C/C(=N/NC(=S)N1CCCCCC1)c1cccc(/C(C)=N\NC(=S)N2CCCCCC2)n1 | inactive |
| CCN(CC)CCC(=O)c1ccc(Oc2ccc(F)cc2)cc1 | inactive |
| COc1ccc2nc3cccc([N+](=O)[O-])c3c(NCCN(CCO)CCO)c2c1 | active |
| CNC1C(OC2C(OC3C(O)C(O)C(N=C(N)N)C(O)C3N=C(N)N)OC(C)C2(O)CO)OC(CO)C(O)C1O (configuration not stated) | inactive |
| CCCCCCCCCCCCCCCCCCOCC(O)COP(=O)(O)OCC1OC(n2cc(F)c(=O)[nH]c2=O)CC1O (configuration not stated) | inactive |
| CSC(=S)N/N=C(\C)c1cccc(C)n1 | inactive |
| [O-][n+]1c2ccc(O)cc2nc2ccc(Cl)cc21 | inactive |
| CCCCCCCCCCCCCCC(C(=O)[O-])[n+]1ccccc1 (configuration not stated) | inactive |

Cited source: PubChem BioAssay (NCI)
